# Tested on: MDA 435 cells
# ASSAY_TEXT: Cell growth inhibition: MTT assay, MDA 435 (ER- breast carcinoma)
# Format: cell-based
# EXPERIMENTAL_CONDITIONS: Homo sapiens, MDA435; 48 hours, 1.0 μM; read-out: % inhibition of cell growth compared to no drug control
inhibition at 1 µM values by entry

| COMPOUND_STRUCTURE_STRING | inhibition at 1 µM / % |
| --- | --- |
| C/C(=C/C=C/C(C)=C/C(=O)Nc1ccc(O)cc1)c1cc(Br)cc(Br)c1 | 70 |
| C/C(=C/C=C/C(C)=C/C(=O)Nc1ccc(O)cc1)c1cc(C)cc(C)c1 | 95 |
| C/C(=C/C=C/C(C)=C/C(=O)Nc1ccc(O)cc1)c1ccccc1 | 39 |
| C/C(=C/C=C/C(C)=C/C(=O)Nc1ccc(O)cc1)c1cc(C(F)(F)F)cc(C(F)(F)F)c1 | 59 |
| CC(/C=C/C(C)=C/C(=O)Nc1ccc(O)cc1)=C(\C)c1cc(C(F)(F)F)cc(C(F)(F)F)c1 | 3 |
| COc1cc(OC)cc(\C(C)=C/C=C/C(C)=C/C(=O)Nc2ccc(O)cc2)c1 | 64 |
| CC(/C=C/C=C\c1cc(C(F)(F)F)cc(C(F)(F)F)c1)=C\C(=O)Nc1ccc(O)cc1 | 45 |

###

# Tested on: MDA 231 cells
# ASSAY_TEXT: Cell growth inhibition: MTT assay, MDA 231 (ER- breast carcinoma)
# Assay type: cell-based
# EXPERIMENTAL_CONDITIONS: Homo sapiens, MDA-MB-231; 24 hours, 10.0 μM; read-out: % inhibition of cell growth compared to no drug control
inhibition at 10 µM values by entry

| COMPOUND_STRUCTURE_STRING | MEASURED_ON | inhibition at 10 µM / % |
| --- | --- | --- |
| CC(/C=C/C(C)=C/C(=O)Nc1ccc(O)cc1)=C(\C)c1cc(C(F)(F)F)cc(C(F)(F)F)c1 | MDA 231 cells | 40 |
| CC(/C=C/C=C\c1cc(C(F)(F)F)cc(C(F)(F)F)c1)=C\C(=O)Nc1ccc(O)cc1 | MDA 231 cells | 37 |
| COc1cc(OC)cc(\C(C)=C/C=C/C(C)=C/C(=O)Nc2ccc(O)cc2)c1 | MDA 231 cells | 30 |
| C/C(=C/C=C/C(C)=C/C(=O)Nc1ccc(O)cc1)c1cc(Br)cc(Br)c1 | MDA 231 cells | 65 |
| C/C(=C/C=C/C(C)=C/C(=O)Nc1ccc(O)cc1)c1cc(C(F)(F)F)cc(C(F)(F)F)c1 | MDA 231 cells | 26 |
| C/C(=C/C=C/C(C)=C/C(=O)Nc1ccc(O)cc1)c1ccccc1 | MDA 231 cells | 58 |
| C/C(=C/C=C/C(C)=C/C(=O)Nc1ccc(O)cc1)c1cc(C)cc(C)c1 | MDA 231 cells | 58 |

###

inhibition at 1 µM values by entry
# Test system: MDA 231 cells
# ASSAY_TEXT: Cell growth inhibition: MTT assay, MDA 231 (ER- breast carcinoma)
# Assay type: cell-based
# EXPERIMENTAL_CONDITIONS: Homo sapiens, MDA-MB-231; 24 hours, 1.0 μM; read-out: % inhibition of cell growth compared to no drug control
REPORTED_METRIC: inhibition at 1 µM (%)

| COMPOUND_STRUCTURE_STRING | READOUT_VALUE |
| --- | --- |
| C/C(=C/C=C/C(C)=C/C(=O)Nc1ccc(O)cc1)c1ccccc1 | 45 |
| CC(/C=C/C(C)=C/C(=O)Nc1ccc(O)cc1)=C(\C)c1cc(C(F)(F)F)cc(C(F)(F)F)c1 | 0 |
| C/C(=C/C=C/C(C)=C/C(=O)Nc1ccc(O)cc1)c1cc(C(F)(F)F)cc(C(F)(F)F)c1 | 18 |
| COc1cc(OC)cc(\C(C)=C/C=C/C(C)=C/C(=O)Nc2ccc(O)cc2)c1 | 18 |
| CC(/C=C/C=C\c1cc(C(F)(F)F)cc(C(F)(F)F)c1)=C\C(=O)Nc1ccc(O)cc1 | 22 |
| C/C(=C/C=C/C(C)=C/C(=O)Nc1ccc(O)cc1)c1cc(Br)cc(Br)c1 | 6 |
| C/C(=C/C=C/C(C)=C/C(=O)Nc1ccc(O)cc1)c1cc(C)cc(C)c1 | 50 |
